All figures here come from PubChem BioAssay (NCI).

Below, each of the compounds is paired with its reported TGI value.
System: A498 renal
Assay: NCI tumour cell line growth inhibition, 48 h

- Compound: "Cc1ccc(S(=O)(=O)NNC2Oc3cc4c(cc3C(c3ccccc3O)C2C)OCO4)cc1 (centres undefined)"
  TGI: "30.7 µM"
- Compound: "CCOC(=O)c1c(N2CCCC2)[nH]c(=O)c(C(c2cccs2)c2c(O)c(C(=O)OCC)c(N3CCCC3)[nH]c2=O)c1O"
  TGI: "> 100 µM"
- Compound: "COC(=O)c1c(-c2ccccc2)c2sc3ccccc3n2c1N"
  TGI: "91.1 µM"
- Compound: "c1ccc(CC2(c3cc4ccccc4[nH]3)OCCO2)nc1"
  TGI: "> 100 µM"
- Compound: "CC1=C(C(=O)Nc2ccc([N+](=O)[O-])cc2)C(c2ccccc2F)C(C(=O)Nc2ccc([N+](=O)[O-])cc2)=C(C)N1"
  TGI: "34.9 µM"
- Compound: "O=[N+]([O-])c1cccc(C2=NOC3C4CCC(C4)C23)c1 (centres undefined)"
  TGI: "> 100 µM"
- Compound: "O=C(CC1C(=O)c2ccccc2C1=C1C(=O)c2ccccc2C1=O)c1ccccc1 (centres undefined)"
  TGI: "> 100 µM"
- Compound: "Nn1c(N=Nc2c(O)[nH]c3c(Cl)cc(Cl)cc23)n[nH]c1=S"
  TGI: "> 100 µM"
- Compound: "CC(C)(C)OC(=O)N(CCCCNCc1ccc2ccccc2c1)CCCNCc1ccc2ccccc2c1"
  TGI: "3.47 µM"
